All figures here come from patent EP2649983A1.

TESTED SYSTEM: SNARE complex (VAMP, syntaxin and SNAP-25 bound to GST) (UniProt P60880)
Sequence (P60880 whole entry, one chain of several): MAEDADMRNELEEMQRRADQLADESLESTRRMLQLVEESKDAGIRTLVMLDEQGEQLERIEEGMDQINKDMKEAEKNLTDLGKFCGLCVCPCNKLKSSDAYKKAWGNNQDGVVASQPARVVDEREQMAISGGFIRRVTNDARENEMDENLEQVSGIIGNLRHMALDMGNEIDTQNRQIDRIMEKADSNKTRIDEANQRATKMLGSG
EXPERIMENT NOTES: competition ELISA: VAMP on plate, SNAP-25-GST + syntaxin, anti-GST detection; compound at 2.5 mM
ASSAY METRIC: % inhibition formation SNARE complex (%)
All answers are understood in %, so give the number only.

Report % inhibition formation SNARE complex for Ac-NDLKDWM-NH2 [Ac-SEQ ID NO:23-NH2] please.
60

Report % inhibition formation SNARE complex for Ac-NHLKNWM-NH2 [Ac-SEQ ID NO:31-NH2] please.
59

Report % inhibition formation SNARE complex for Ac-EHLKQWM-OH [Ac-SEQ ID NO:1-OH] please.
59
